target: CDK2/cyclin E (Homo sapiens (Human)); assay: Radiometric 33P-ATP kinase inhibition assay, CDK2/cyclin E; conditions: 10 μM ATP
READOUT TYPE: IC50 (nM)

[
  {
    "GIVEN SMILES": "COc1cc(Nc2ncc3ccc4ncn(C(C)C)c4c3n2)ncc1N1CCNC(C)(C)C1",
    "IC50 / nM": 483
  }
]

a = CC(C)n1cnc2ccc3cnc(Nc4cc(Oc5ccccc5)c(N5CCNCC5)cn4)nc3c21
b = COc1cc(Nc2ncc3ccc4ncn(C(C)C)c4c3n2)ncc1N1CCN(C)CC1
c = COc1cc(Nc2ncc3ccc4ncn(C(C)C)c4c3n2)ncc1N1CC2(COC2)C1
Inquiry: Number of compounds to sort: 3. Sort criterion: IC50, ascending. Respond with the label ranking, as requested.
Reply text: c, b, a

====

molecular target: CDK2/cyclin E (Homo sapiens (Human)); assay: Radiometric 33P-ATP kinase inhibition assay, CDK2/cyclin E; details: 10 μM ATP
pIC50: −log10 of the molar value.
READOUT TYPE: pIC50

1 = COc1cc(Nc2ncc3ccc4ncn(C(C)C)c4c3n2)ncc1N1CC2CCC1CN2 (centres unmarked) [Compound I-12]
2 = CCN1CCN(c2cnc(Nc3ncc4ccc5ncn(C(C)C)c5c4n3)cc2OC)CC1 [Compound I-2]
Inquiry: Out of 1 and 2 , name the one with the higher pIC50. When you have decided, please share the label of that item.
Reply text: 2
(2: 6.79, 1: 6.52)

====

target: CDK4/cyclin D1 (Homo sapiens (Human)); assay: Radiometric 33P-ATP kinase inhibition assay, CDK4/cyclin; conditions: 10 μM ATP
Sequence (P11802 whole entry): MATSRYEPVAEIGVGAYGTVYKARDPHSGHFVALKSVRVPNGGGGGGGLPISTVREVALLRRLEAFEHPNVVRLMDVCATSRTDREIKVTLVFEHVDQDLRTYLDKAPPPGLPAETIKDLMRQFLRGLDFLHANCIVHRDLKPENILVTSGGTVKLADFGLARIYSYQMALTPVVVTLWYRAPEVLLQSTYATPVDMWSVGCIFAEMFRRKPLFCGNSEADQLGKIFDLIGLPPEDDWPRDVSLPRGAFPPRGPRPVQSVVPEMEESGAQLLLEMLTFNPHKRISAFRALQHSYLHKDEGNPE
Sequence (P24385 whole entry partner): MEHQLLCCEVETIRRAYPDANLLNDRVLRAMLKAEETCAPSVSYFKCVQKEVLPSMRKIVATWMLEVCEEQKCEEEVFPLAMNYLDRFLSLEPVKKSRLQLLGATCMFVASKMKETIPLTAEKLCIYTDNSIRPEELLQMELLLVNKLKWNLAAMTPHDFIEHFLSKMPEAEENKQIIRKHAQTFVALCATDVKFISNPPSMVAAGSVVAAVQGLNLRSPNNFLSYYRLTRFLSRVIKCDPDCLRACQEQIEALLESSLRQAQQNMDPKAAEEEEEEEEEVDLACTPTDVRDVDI
pIC50: −log10 of the molar value.
READOUT TYPE: pIC50

[
  {
    "COMPOUND": "CNC1CN(c2cnc(Nc3ncc4ccc5ncn(C(C)C)c5c4n3)cc2OC)C1",
    "EXPERIMENTAL RESULT": 6.61
  },
  {
    "COMPOUND": "COc1cc(Nc2ncc3ccc4ncn(C(C)C)c4c3n2)ncc1N1CCN(C)CC1",
    "EXPERIMENTAL RESULT": 7.21
  },
  {
    "COMPOUND": "CCOc1cc(Nc2ncc3ccc4ncn(CC)c4c3n2)ncc1N1CCN(CC)CC1",
    "EXPERIMENTAL RESULT": 6.66
  },
  {
    "COMPOUND": "CCOc1cc(Nc2ncc3ccc4ncn(C(C)C)c4c3n2)ncc1N1CCN(C)CC1",
    "EXPERIMENTAL RESULT": 7.00
  }
]

a = CC(C)n1cnc2ccc3cnc(Nc4cc(Oc5ccccc5)c(N5CCNCC5)cn4)nc3c21
b = CC(C)n1cnc2ccc3cnc(Nc4cc(OCC5CC5)c(N5CCNCC5)cn4)nc3c21
Inquiry: For the pair a and b , which entry has the numerically smaller recorded pIC50? When you have decided, please share the label of that item.
Reply text: b

A = CCN1CCN(c2cnc(Nc3ncc4ccc5ncn(C(C)C)c5c4n3)cc2OC)CC1
B = COc1cc(Nc2ncc3ccc4ncn(C(C)C)c4c3n2)ncc1NCC1COC(=O)N1C (centres unmarked)
Inquiry: Out of A and B , name the one with the higher pIC50. When you have decided, please share the label of that item.
Reply text: A
(A: 7.18, B: 6.57)

====

target: CDK2/cyclin E (Homo sapiens (Human), UniProt P24941); assay: Radiometric 33P-ATP kinase inhibition assay, CDK2/cyclin E; details: 10 μM ATP
pIC50: −log10 of the molar value.
READOUT TYPE: pIC50

Known results for compounds:
[
  {
    "COMPOUND": "CCOc1cc(Nc2ncc3ccc4ncn(C(C)C)c4c3n2)ncc1N1CCOCC1",
    "pIC50": "< 6.30"
  },
  {
    "COMPOUND": "COc1cc(Nc2ncc3ccc4ncn(C(C)C)c4c3n2)ncc1NCC1COC(=O)N1C (stereo not drawn)",
    "pIC50": "< 6.30"
  }
]

Proceeding to the next compound to report its pIC50.
Inquiry: Form: Entry = CNC1CN(c2cnc(Nc3ncc4ccc5ncn(C(C)C)c5c4n3)cc2OC)C1 | System = CDK2/cyclin E (Homo sapiens (Human), UniProt P24941) | pIC50 = ____
Reply text: < 6.30

====

target: CDK2/cyclin E (Homo sapiens (Human), UniProt P24941); test: Radiometric 33P-ATP kinase inhibition assay, CDK2/cyclin E; settings: 10 μM ATP
Let's look at some compounds and their measured IC50.
Write it as a number; the unit nM goes unstated.

Known results for compounds:
[
  {
    "GIVEN SMILES": "COc1cc(Nc2ncc3ccc4ncn(C(C)C)c4c3n2)ncc1N1CC2(CNC2)C1",
    "UNIT DESCRIPTOR": "nM",
    "EXPERIMENTAL RESULT": 69.5
  },
  {
    "GIVEN SMILES": "COc1cc(Nc2ncc3ccc4nc(C)n(C(C)C)c4c3n2)ncc1N1CCOCC1",
    "UNIT DESCRIPTOR": "nM",
    "EXPERIMENTAL RESULT": 89.1
  }
]

Proceeding to the next compound to report its IC50.
Inquiry: Sample CC(C)n1cnc2ccc3cnc(Nc4cc(OCCF)c(N5CC6CC(C5)N6)cn4)nc3c21 — what was its IC50?
Reply text: 91.1

====

molecular target: CDK2/cyclin E (Homo sapiens (Human)); assay: Radiometric 33P-ATP kinase inhibition assay, CDK2/cyclin E; details: 10 μM ATP
pIC50: −log10 of the molar value.
READOUT TYPE: pIC50

Inquiry: Sample CCOc1cc(Nc2ncc3ccc4ncn(C(C)C)c4c3n2)ncc1N1CCN(C)CC1 — what was its pIC50?
Reply text: < 6.30

Inquiry: Now the molecule COc1cc(Nc2ncc3ccc4ncn(C(C)C)c4c3n2)ncc1N1C2CCC1CNC2
Reply text: < 6.30

Inquiry: Now the molecule CC(C)n1cnc2ccc3cnc(Nc4cc(OCC5CC5)c(N5CCNCC5)cn4)nc3c21
Reply text: < 6.30
